Property: IC50; scope: individual compounds
- Test system: MDA-MB-468 cells
- ASSAY DETAILS: Toxicity in MDA-MB-468 cells, MTT assay
- Assay type: cell-based
- TEST SETTINGS: Homo sapiens, MDA-MB-468, read-out: 3hr toxicity (IC50) Inhibitor alone
Numbers only; they are read as µM.

- ITEM SMILES: "N=C(N)c1ccc(-c2ccc(-c3ccc(C(=N)N)cc3)o2)cc1"
  TARGET UNDER TEST: "MDA-MB-468 cells"
  IC50 [µM]: 114

Query: Specify measured IC50 for Nc1c2ccccc2nc2ccccc12 .
Result: 23

---

- TARGET UNDER TEST: Recombinant human NQO2 (Homo sapiens)
- Sequence (P16083 1-231): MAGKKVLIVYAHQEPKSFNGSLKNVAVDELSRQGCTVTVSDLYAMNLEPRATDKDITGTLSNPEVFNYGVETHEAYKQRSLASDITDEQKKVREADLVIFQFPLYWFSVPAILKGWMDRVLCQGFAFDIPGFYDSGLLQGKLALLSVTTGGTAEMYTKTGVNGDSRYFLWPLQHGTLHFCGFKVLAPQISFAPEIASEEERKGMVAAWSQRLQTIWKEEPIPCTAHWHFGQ
- ASSAY DETAILS: Inhibition of recombinant NQO2 enzymatic activity
- Format: biochemical
- TEST SETTINGS: IC50 + BSA, presence of 2 μM BSA; 200 μM NRH, DCPIP
QUANTITY: IC50 (µM)
Numbers only; they are read as µM.

- COMPOUND: "CCN(CC)CCCC(C)Nc1c2ccc(Cl)cc2nc2ccc(OC)cc12 (centres unmarked)"
  IC50 (µM): 8.5

Query: Specify measured IC50 for N=C(N)c1ccc(-c2ccc(-c3ccc(C(=N)N)cc3)o2)cc1 .
Result: 2.8

---

- TARGET UNDER TEST: Recombinant human NQO2 (Homo sapiens, UniProt P16083)
- Sequence (P16083 1-231): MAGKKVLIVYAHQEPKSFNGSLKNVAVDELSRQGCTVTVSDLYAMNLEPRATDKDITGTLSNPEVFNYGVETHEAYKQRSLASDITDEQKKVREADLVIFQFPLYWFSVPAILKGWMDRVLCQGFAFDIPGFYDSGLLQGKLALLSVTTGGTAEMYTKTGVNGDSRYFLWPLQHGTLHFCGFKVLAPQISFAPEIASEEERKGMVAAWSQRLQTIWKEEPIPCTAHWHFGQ
- ASSAY DETAILS: Inhibition of recombinant NQO2 enzymatic activity
- Type: biochemical
- TEST SETTINGS: read-out: IC50 – BSA; absence of BSA; 200 μM NRH, DCPIP
Property: pIC50; scope: individual molecules
The quantity pIC50 is defined as the negative base-10 logarithm of the molar concentration.

Solved entries (count: 4):
- ITEM SMILES: "Cc1c2ccncc2c(C)c2c1[nH]c1ccccc12"
  pIC50: 7.30
- ITEM SMILES: "Cc1c2cnccc2c(C)c2c1c1ccccc1n2CCNCc1ccccc1"
  pIC50: 7.70
- ITEM SMILES: "Cc1c(-c2ccc(C(=N)N)cc2)oc(-c2ccc(C(=N)N)cc2)c1C"
  pIC50: 7.30
- ITEM SMILES: "O=C1c2c(c3c4ccccc4[nH]c3c3[nH]c4ccccc4c23)C(=O)N1Cc1ccccc1"
  pIC50: 6.18

Continue with the next molecule.
Query: Lab note: Recombinant human NQO2 (Homo sapiens, UniProt P16083) assay, enter pIC50 for Nc1cc2c(cc1[N+](=O)[O-])[nH]c1c(-c3ccccc3)nccc12 here
Result: 6.70
